Experiment: qHTS of pediatric cancer cell lines to identify multiple opportunities for drug repurposing: Primary screen for NB-EBc1 cells (AID 1347095)
Conditions: NB-EBc1 neuroblastoma viability, CellTiter-Glo luminescence, 48 h; series mostly up to 46 µM
Inconclusive results are not listed. The source made the active and inactive calls. Calls follow the shape of the dose curve; as a rule, active = well fitted cell-killing curve with a large enough effect; inconclusive = small, poorly fitted or top-dose-only effect; inactive = no such curve, though single readings can be large or run the other way.
Choose one outcome from this list and give only that: class 1 (active), class 0 (inactive)

These recorded examples may help you get a feel for the data.
C[n+]1cc2c3c(ccc2c2ccc4cc5c(cc4c21)OCO5)OCO3 ... class 1
CN(C(=O)CCCOc1ccc2[nH]c(=O)ccc2c1)C1CCCCC1 ... class 0
O=C1CC2(CCCC2)CC(=O)N1CCCCN1CCN(c2ncccn2)CC1 ... class 0
O=c1[nH]c(=O)n([C@H]2C[C@H](O)[C@@H](CO)O2)cc1Br ... class 0
CCCN(CCC)C(=O)C(CCC(=O)O)NC(=O)c1ccccc1 (stereo unspecified) ... class 0

Continue with the next molecule.
Hi, sorry to bother you, what did the test record for CNCCC(Oc1ccccc1OC)c1ccccc1 (stereo unspecified) ? class 0

----------
Test system: HB3
Experiment: qHTS profiling for inhibitors of Plasmodium falciparum proliferation (AID 504749); also: nearly all actives have a fitted effect of over 60% in size
Conditions: P. falciparum in erythrocytes, SYBR Green DNA, 72 h; series mostly up to 28.7 µM
Inconclusive results are not listed. Active and inactive are the calls of the source. Calls follow the shape of the dose curve; as a rule, active = well fitted inhibition curve with a large enough effect; inconclusive = small, poorly fitted or top-dose-only effect; inactive = flat fitted curve, though single readings scatter.
Choose one outcome from this list and give only that: t for active, f for inactive

c1cnc(N2CCN(Cc3ccc4c(c3)OCO4)CC2)nc1 ... f
CN(C)CCCN1c2ccccc2Sc2ccc(C(F)(F)F)cc21 ... f
NC(=O)c1cn(Cc2c(F)cccc2F)nn1 ... f
CC(=O)[C@@]1(O)CC[C@H]2[C@@H]3CCC4=CC(=O)CC[C@]4(C)[C@H]3CC[C@@]21C ... f
O=C(CCNNC(=O)c1ccncc1)NCc1ccccc1 ... f

Continue with the next compound.
Hi, sorry to bother you, what did the test record for CCN(CC)CCOCCOC(=O)C1(c2ccccc2)CCCC1 ? t

----------
Test system: TAB113
Assay: qHTS profiling for inhibitors of Plasmodium falciparum proliferation (AID 504749); also: nearly all actives have a fitted effect of over 60% in size; also: potency is read from the fitted curve at half-maximal effect
Settings: P. falciparum in erythrocytes, SYBR Green DNA, 72 h; series mostly up to 28.7 µM
Results filed as inconclusive are left out. Active and inactive are the calls of the source. Calls follow the shape of the dose curve; as a rule, active = well fitted inhibition curve with a large enough effect; inconclusive = small, poorly fitted or top-dose-only effect; inactive = flat fitted curve, though single readings scatter.
observationType: Potency

O=C1CC2(CCCC2)CC(=O)N1CCCCN1CCN(c2ncccn2)CC1 ... inactive
Cc1ccc(=O)n(-c2ccccc2)c1 ... inactive
CCN(Cc1ccncc1)C(=O)C(CO)c1ccccc1 (stereo not given) ... inactive
NC(=Nc1ccccc1)Nc1ccccc1 ... inactive
CCN(CC)CCOCCOC(=O)C1(c2ccccc2)CCCC1 ... 11.2 µM (active)
C[C@]12CCC(=O)C=C1CC[C@@H]1[C@@H]2CC[C@@]2(C)[C@H]1CC[C@]2(O)C(=O)CO ... inactive

Sure, the documented Potency for COCC(=O)O[C@]1(CCN(C)CCCc2nc3ccccc3[nH]2)CCc2cc(F)ccc2[C@@H]1C(C)C is 2 µM (active)

Sure, the documented Potency for CCCCCN(CCCCC)C(=O)C(CCC(=O)O)NC(=O)c1ccc(Cl)c(Cl)c1 (stereo not given) is inactive

Sure, the documented Potency for CCCCOCCOCCOCc1cc2c(cc1CCC)OCO2 is inactive

Sure, the documented Potency for CN(C)C(=O)Oc1cccc([N+](C)(C)C)c1 is inactive

Sure, the documented Potency for C#CCN(C)CCCOc1ccc(Cl)cc1Cl is inactive

Sure, the documented Potency for COc1cc2c(cc1OC)-c1cc(=Nc3c(C)cc(C)cc3C)n(C)c(=O)n1CC2 is 3.16 µM (active)

Sure, the documented Potency for CC(=O)Nc1nnc(S(N)(=O)=O)s1 is inactive

Sure, the documented Potency for C[N+](C)(C)CCOC(N)=O is inactive

----------
Biological target: Glucagon-like peptide 1 receptor (Homo sapiens) (UniProt P43220)
Sequence (P43220 whole entry, looked up): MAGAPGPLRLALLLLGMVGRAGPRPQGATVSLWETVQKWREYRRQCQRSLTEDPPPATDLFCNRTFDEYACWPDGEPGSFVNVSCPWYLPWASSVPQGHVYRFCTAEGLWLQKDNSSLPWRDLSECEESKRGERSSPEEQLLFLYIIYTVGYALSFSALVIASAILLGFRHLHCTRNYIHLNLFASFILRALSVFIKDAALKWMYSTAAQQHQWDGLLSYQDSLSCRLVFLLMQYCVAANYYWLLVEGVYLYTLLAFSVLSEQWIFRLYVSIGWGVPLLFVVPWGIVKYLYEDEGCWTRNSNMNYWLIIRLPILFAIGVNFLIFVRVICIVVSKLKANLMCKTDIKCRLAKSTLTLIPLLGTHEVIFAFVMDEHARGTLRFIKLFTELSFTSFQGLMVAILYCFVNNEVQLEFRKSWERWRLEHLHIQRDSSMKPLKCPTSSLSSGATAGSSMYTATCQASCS
Assay: qHTS of GLP-1 Receptor Agonists: LOPAC Validation (AID 624148);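 also: luminescence from a luciferase reporter switched on by cAMP; 0% is about no effect; higher luminescence signal means agonism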
Conditions: GLP-1R agonist cell assay; series mostly up to 46.1 µM
Results filed as inconclusive are left out. Active and inactive are the calls of the source. The call rests on the fitted dose curve; in most records, active means well fitted curve in the direction sought with a large enough effect; inconclusive means small, poorly fitted or top-dose-only effect, or another doubt; inactive means no such curve, though single readings can be large or run the other way.
observationType: outcome

CCCCCN(CCCCC)C(=O)C(CCC(=O)O)NC(=O)c1ccc(Cl)c(Cl)c1 (configuration not stated) ... inactive
C[C@@H](O)[C@H]1C(=O)N2C(C(=O)O)=C(SCCN=CN)C[C@H]12 ... inactive
Cc1ccc(=O)n(-c2ccccc2)c1 ... inactive
NC(=O)c1ncn([C@@H]2O[C@H](CO)[C@@H](O)[C@H]2O)c1O ... inactive
CN(C)[C@@H]1C(=O)C(C(N)=O)=C(O)[C@@]2(O)C(=O)C3=C(O)c4c(O)ccc(Cl)c4[C@@H](O)[C@H]3C[C@@H]12 ... inactive

Sure, the documented outcome for CN(C)CC/C=C1\c2ccccc2COc2ccccc21 is inactive

Sure, the documented outcome for COc1ccc2c(c1OC)C(=O)O[C@@H]2[C@H]1c2c(cc3c(c2OC)OCO3)CCN1C is inactive

Sure, the documented outcome for Nc1nc(N)c2nc(-c3ccccc3)c(N)nc2n1 is inactive

Sure, the documented outcome for CN1CCN(C2=Nc3ccccc3Oc3ccc(Cl)cc32)CC1 is inactive

Sure, the documented outcome for Brc1c(NC2=NCCN2)ccc2nccnc12 is inactive

Sure, the documented outcome for COc1ccc(CN(CCN(C)C)c2ccccn2)cc1 is inactive

Sure, the documented outcome for COCCc1ccc(OCC(O)CNC(C)C)cc1 (configuration not stated) is inactive

----------
Target: N-terminal Xaa-Pro-Lys N-methyltransferase 1 (Homo sapiens) (UniProt Q9BV86)
Sequence (Q9BV86 whole entry, looked up): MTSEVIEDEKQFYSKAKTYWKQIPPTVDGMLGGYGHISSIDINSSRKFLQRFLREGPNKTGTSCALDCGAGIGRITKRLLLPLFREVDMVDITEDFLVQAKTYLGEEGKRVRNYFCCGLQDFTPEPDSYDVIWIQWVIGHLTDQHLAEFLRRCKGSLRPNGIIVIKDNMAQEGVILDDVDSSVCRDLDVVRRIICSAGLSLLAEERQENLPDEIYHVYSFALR
Test: qHTS Assay for Inhibitors of N-terminal methyltransferase 1 (NTMT1): LOPAC validation of the NTMT1 SAHH-coupled ThioGlo3 Assay (AID 1347143);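 also: SAH from peptide methylation measured as thiol fluorescence via SAHH coupling and ThioGlo3; nearly all actives have a fitted effect of over 70% in size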
Details: recombinant NTMT1, SAHH-coupled ThioGlo3 fluorescence; series mostly up to 114 µM
Inconclusive results are not listed. Calls of active or inactive are those of the source. The call rests on the fitted dose curve; in most records, active means well fitted inhibition curve with a large enough effect; inconclusive means small, poorly fitted or top-dose-only effect; inactive means no such curve, though single readings can be large or run the other way.
Choose one outcome from this list and give only that: Y for active, N for inactive

CC(C)COCC(CN(Cc1ccccc1)c1ccccc1)N1CCCC1 (stereo unspecified) ... Y
CCCNC(C)C(=O)Nc1ccccc1C (stereo unspecified) ... N
C[N+](C)(C)CCOC(N)=O ... N
CN(C)CCOC(=O)COc1ccc(Cl)cc1 ... Y
CCCOc1ccccc1-c1nc2n[nH]nc2c(=O)[nH]1 ... N

Hi, sorry to bother you, what did the test record for Brc1c(NC2=NCCN2)ccc2nccnc12 ? Y

Hi, sorry to bother you, what did the test record for CCCCCN(CCCCC)C(=O)C(CCC(=O)O)NC(=O)c1ccc(Cl)c(Cl)c1 (stereo unspecified) ? N

Hi, sorry to bother you, what did the test record for CC(=O)Nc1nnc(S(N)(=O)=O)s1 ? N

Hi, sorry to bother you, what did the test record for CN(C)[C@@H]1C(=O)C(C(N)=O)=C(O)[C@@]2(O)C(=O)C3=C(O)c4c(O)ccc(Cl)c4[C@@H](O)[C@H]3C[C@@H]12 ? Y

Hi, sorry to bother you, what did the test record for NS(=O)(=O)c1cc2c(cc1Cl)NC(C1CC3C=CC1C3)NS2(=O)=O (stereo unspecified) ? N

Hi, sorry to bother you, what did the test record for COC(=O)C1=C(C)NC(C)=C(C(=O)OC(C)(C)CN(C)CCC(c2ccccc2)c2ccccc2)C1c1cccc([N+](=O)[O-])c1 (stereo unspecified) ? N

----------
Collected activity, negative = inhibition values appear next to each entry.
Assay: qHTS profiling for inhibitors of Plasmodium falciparum proliferation (AID 504749); also: nearly all actives have a fitted effect of over 60% in size;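 as to activity, negative = inhibition: 0% = DMSO vehicle and full inhibition = artemisinin control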
Conditions: P. falciparum in erythrocytes, SYBR Green DNA, 72 h; at 12.8 µM (top of the series); parasite line B
Records with an inconclusive call do not appear.
Entry rule: numbers only, all in %.

Here's what some known entries look like.
CCN(CC)CCNC(=O)c1cc(S(C)(=O)=O)ccc1OC ... 10.3
CC[N+](C)(C)c1cccc(O)c1 ... 8.4
CN(C)CCOC(=O)COc1ccc(Cl)cc1 ... -4.94
CC(=O)Oc1cc(C(C)C)c(OCCN(C)C)cc1C ... -3.15

Now turn to the next compound.
Sure, the documented activity, negative = inhibition for CN(C)CCCN1c2ccccc2Sc2ccccc21 is 20.7

----------
Test: Primary qHTS for small molecule stabilizers of the endoplasmic reticulum resident proteome: Secreted ER Calcium Modulated Protein (SERCaMP) assay (AID 1508630); also: % is scaled to controls: 0 for no effect and ±100 for the full control effect
Details: SH-SY5Y GLuc-SERCaMP (Gaussia luciferase released on ER calcium loss) secretion, thapsigargin, luminescence; series mostly up to 38.4 µM
Results filed as inconclusive are left out. The source made the active and inactive calls. Calls follow the shape of the dose curve; as a rule, active = well fitted inhibition curve with a large enough effect; inconclusive = small, poorly fitted or top-dose-only effect; inactive = no such curve, though single readings can be large or run the other way.
Choose one outcome from this list and give only that: active, inactive

These recorded examples may help you get a feel for the data.
CN(C(=O)CCCOc1ccc2[nH]c(=O)ccc2c1)C1CCCCC1 ... inactive
COc1ccc(CN(CCN(C)C)c2ccccn2)cc1 ... inactive
NC(N)=NC(=O)Cc1c(Cl)cccc1Cl ... inactive
CC(C)(C)c1ccc(C(=O)CCCN2CCC(OC(c3ccccc3)c3ccccc3)CC2)cc1 ... inactive
CC(C)(Oc1ccc(CCNC(=O)c2ccc(Cl)cc2)cc1)C(=O)O ... inactive
COCCOC(=O)C1=C(C)NC(C)=C(C(=O)OC(C)C)C1c1cccc([N+](=O)[O-])c1 (stereo not given) ... inactive
O=C1CC2(CCCC2)CC(=O)N1CCCCN1CCN(c2ncccn2)CC1 ... inactive
CCN(CC)CCNC(=O)c1cc(S(C)(=O)=O)ccc1OC ... inactive

Continue with the next compound.
Hi, sorry to bother you, what did the test record for CO[C@@]1(NC(=O)CSCC#N)C(=O)N2C(C(=O)O)=C(CSc3nnnn3C)CS[C@@H]21 ? inactive
